Data provenance is paper PMC9482650.

Assayed target: DLG1_2, Q12959
Sequence (Q12959 314-412): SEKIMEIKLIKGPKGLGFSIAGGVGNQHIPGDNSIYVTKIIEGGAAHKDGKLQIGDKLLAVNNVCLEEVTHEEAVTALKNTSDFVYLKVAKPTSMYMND
Test description: holdup assay
Set-up: key: below the threshold = too weak to quantify, mostly under pKd 3.1 to 4
Study conditions: plain residues with an end cap or a label only (N-terminal biotin on a linker: ttds)
I'd appreciate it if you could supply pKd values for the items below.
// no unit string in output, number only

Request: Please look up its pKd: GQDSREETQL [KCNT2, Q6UVM3]
Result: 4.2

Request: Please look up its pKd: SRPQRTQTQV [HPV67-E6, A4U7F2]
Result: 5.01

Request: Please look up its pKd: SSRTRRETQL [HPV16-E6, P03126]
Result: 5.06

Request: Please look up its pKd: STLTIFETAL [ABCC4, O15439]
Result: 4.57
